The measurements presented in this section are drawn from patent US20110044996A1.

Hi there, I'd appreciate the recorded koff for every entry that follows.
test target: T1, recombinant human GM-CSF (Peprotech) (human, UniProt P04141 18-144)
T1 construct: Commercial recombinant protein; also called granulocyte-macrophage colony stimulating factor
T1 sequence (P04141 18-144 limits assumed): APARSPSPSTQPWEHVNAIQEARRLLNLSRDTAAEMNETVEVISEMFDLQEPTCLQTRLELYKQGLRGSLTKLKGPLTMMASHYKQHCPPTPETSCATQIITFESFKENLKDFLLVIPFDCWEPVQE
protocol notes: SPR (BIAcore); recombinant human GM-CSF coupled to CM5 chip, antibody injected at 66.7-4.17 nM
Give bare numbers, in s⁻¹.

Below are worked cases with known answers.
[ask] Please report the measured koff for hGM4/3 (antibody, V domains shown, Heavy h4/30 with human gamma 1 constant (hG1), light h4a with human kappa constant (hKa); also called h4K21-3; 4K21-3) VH: EVQLVESGGGLVQPGGSLRLSCSASGFAFSAYDMSWVRQAPGKGLEWVAYISSGGSSFYYPDTVKGRFTISRDNAKNSLFLQMSSLRAEDTAVYYCARHLGFDYWGQGTTVTVSS VL: DVVMTQSPLSLPVTLGQPASISCRSSQSLVNSNGNTYLHWFQQRPGQSPRRLIYKVSNRFSGVPDRFSGSGSGTDFTLKISRVEAEDVGVYYCSQSTHVPPTFGGGTKVEIK
[reply] 3e-05

[ask] Please report the measured koff for hGM4/5 (antibody, V domains shown, Heavy h4/50 with human gamma 1 constant (hG1), light h4a with human kappa constant (hKa); also called h4K21-5) VH: EVQLVESGGGLVKSGGSLTLSCAASGFAFSAYDMSWIRQAPGKGLEWVSYISSGGSSFYYPDTVKGRFTISRDNAKNSLYLQMNSLKDEDTAVYYCARHLGFDYWGQGTLVTVSS VL: DVVMTQSPLSLPVTLGQPASISCRSSQSLVNSNGNTYLHWFQQRPGQSPRRLIYKVSNRFSGVPDRFSGSGSGTDFTLKISRVEAEDVGVYYCSQSTHVPPTFGGGTKVEIK
[reply] 1.9e-05

Next binder, koff to be filled in.
[ask] Please report the measured koff for hGM4/1 (antibody, V domains shown, Heavy h4/10 with human gamma 1 constant (hG1), light h4a with human kappa constant (hKa); also called h4K21-1; 4K21-1) VH: QVQLQESGGGLVKPGGSLKLSCAASGFAFSAYDMSWVRQTPDKRLEWVAYISSGGSSFYYPDTVKGRFTISRDNAKNTLYLQMSSLKSEDTAMYYCARHLGFDYWGQGTMVTVSS VL: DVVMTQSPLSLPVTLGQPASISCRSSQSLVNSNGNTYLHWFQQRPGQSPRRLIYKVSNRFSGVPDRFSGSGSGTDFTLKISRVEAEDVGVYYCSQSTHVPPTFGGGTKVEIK
[reply] 3.8e-05
